Hello, the source for this data is PubChem BioAssay, in case you need it.

z-score overview
- TESTED SYSTEM: NADPH oxidase 5 (Homo sapiens) (UniProt Q96PH1)
- Sequence (Q96PH1 whole entry, looked up): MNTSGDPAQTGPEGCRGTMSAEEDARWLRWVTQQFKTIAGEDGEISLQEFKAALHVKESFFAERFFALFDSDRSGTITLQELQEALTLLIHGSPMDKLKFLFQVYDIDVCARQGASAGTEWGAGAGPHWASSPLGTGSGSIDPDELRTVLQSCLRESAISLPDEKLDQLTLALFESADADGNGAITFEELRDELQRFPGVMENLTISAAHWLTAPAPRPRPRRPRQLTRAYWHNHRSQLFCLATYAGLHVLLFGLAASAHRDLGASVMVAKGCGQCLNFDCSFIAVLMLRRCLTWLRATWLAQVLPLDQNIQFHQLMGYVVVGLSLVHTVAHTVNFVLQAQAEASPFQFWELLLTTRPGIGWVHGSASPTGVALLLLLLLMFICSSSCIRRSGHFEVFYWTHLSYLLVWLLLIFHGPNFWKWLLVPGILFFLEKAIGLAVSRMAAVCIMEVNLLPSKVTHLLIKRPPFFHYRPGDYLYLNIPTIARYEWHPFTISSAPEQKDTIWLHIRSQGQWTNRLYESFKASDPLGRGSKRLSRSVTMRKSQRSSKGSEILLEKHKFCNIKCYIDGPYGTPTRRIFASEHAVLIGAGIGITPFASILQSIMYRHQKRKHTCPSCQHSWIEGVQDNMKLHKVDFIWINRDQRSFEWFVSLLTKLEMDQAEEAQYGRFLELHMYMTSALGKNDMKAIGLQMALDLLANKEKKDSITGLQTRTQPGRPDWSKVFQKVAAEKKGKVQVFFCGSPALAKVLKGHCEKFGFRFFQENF
- METHOD NOTES: compounds shifting NOX5 Amplex Red fluorescence – cell-based, HEK293-NOX5, NOX inhibitor project, primary screen (AID 1161)
- ASSAY CONTEXT: HEK293-NOX5, ionomycin, 45 min, higher = more signal
I'd appreciate a reply containing only the number, no unit.

Would you please look over these solved cases?
>  <COMPOUND>
COc1ccc([Si](C)(C)[C@@H]2[C@@H](CC(=O)N3CCC[C@H]3CO)O[C@]3(C(=O)N(Cc4cccc(N5C(=O)COc6ccccc65)c4)c4ccccc43)[C@H]2C)cc1

>  <READOUT LABEL>
z-score

>  <VALUE REPORTED>
4.12

$$$$
>  <COMPOUND>
C=CCNC(=O)[C@@H]1[C@H]2C(=O)O[C@H](c3ccccc3)[C@H](c3ccccc3)N2[C@H](c2ccccc2OCCO)[C@@]12C(=O)N(C(=O)OCCOC)c1ccc(C#CC3(O)CCCCCC3)cc12

>  <READOUT LABEL>
z-score

>  <VALUE REPORTED>
0.337

$$$$

Alright, here's another compound for you.
q: Find the measured z-score of CC(C)C(CO)N1C(=O)[C@@H]2[C@H]3C(=O)OCC=C[C@H]3OC23C=CCN(c2ccc(Cl)cc2)C(=O)[C@@H]13 (stereo partly drawn) and report it.
a: 1.78

* * *

Reported z-score values are given for each entry in this list.
- TESTED SYSTEM: NADPH oxidase 2 (Homo sapiens)
- METHOD NOTES: compounds shifting NOX2 Amplex Red fluorescence – cell-based, HEK293-NOX2, PMA-stimulated, NOX inhibitor project, primary screen (AID 1159); further: test concentration not given here
- ASSAY CONTEXT: 45 min, higher = more signal, called active from +8 up or from −8 down
Just the number, please, no unit attached.

>  <COMPOUND>
COc1ccc([Si](C)(C)[C@@H]2[C@@H](CCO)O[C@]3(C(=O)N(Cc4cccc(NC(=O)[C@H](C)O)c4)c4ccccc43)[C@H]2C)cc1

>  <z-score>
-0.881

$$$$
>  <COMPOUND>
O=C1O[C@H](c2ccccc2)[C@H](c2ccccc2)N2[C@H]1[C@@H](C(=O)O)[C@]1(C(=O)Nc3ccc(C#CCCO)cc31)[C@H]2c1ccccc1OCCO

>  <z-score>
1.93

$$$$
>  <COMPOUND>
CC1CC/C=C\[C@H]2OC34C=CCN(C(C)C)C(=O)[C@H]3N(CCO)C(=O)[C@@H]4C2C(=O)O1 (some centres undefined)

>  <z-score>
2.21

$$$$
>  <COMPOUND>
O=C1O[C@@H](c2ccccc2)[C@@H](c2ccccc2)N2[C@@H](c3ccc(O)cc3)[C@]3(C(=O)Nc4ccc(C#CCCO)cc43)[C@@H](C(=O)N3CCN(c4ncccn4)CC3)[C@H]12

>  <z-score>
0.941

$$$$
>  <COMPOUND>
C=CCN1C(=O)[C@]2(CCC(=O)OC(C)(C)C)N=C(c3ccc(OCCCO)cc3)O[C@@H]2c2ccccc21

>  <z-score>
-2.67

$$$$
>  <COMPOUND>
O=C(Cc1ccccc1)[C@H]1C2C=CCCC(c3ccccc3)=C2CN1Cc1ccccc1 (some centres undefined)

>  <z-score>
-0.534

$$$$
>  <COMPOUND>
CCOC(=O)C[C@H]1[C@H](OC(=O)c2ccccc2-c2ccccc2)[C@@H](NC(=O)c2ccc3ccccc3n2)c2cc(OCCCO)ccc2N1C(=O)Cc1ccc(OC)cc1

>  <z-score>
0.0348

$$$$
>  <COMPOUND>
C=CCOC(=O)[C@@H]1[C@H]2C(=O)O[C@H](c3ccccc3)[C@H](c3ccccc3)N2[C@H](c2ccc(OCCOC(=O)[C@@H]3C[C@@H]4C(=O)N[C@@H](CCCC[N+](C)(C)C)C(=O)N4[C@@H]3c3ccc(O)cc3)cc2)[C@@]12C(=O)Nc1ccc(I)cc12

>  <z-score>
2.43

$$$$
>  <COMPOUND>
CCCCCC1=C2CNC(C)(C(=O)OC)C=C2C(C)C1=O (centres undefined)

>  <z-score>
0.116

$$$$
>  <COMPOUND>
O[C@@H](Cc1ccccc1)[C@@H](/C=C/C1CC1)N(CC#Cc1ccccc1)Cc1ccccc1Br

>  <z-score>
-0.612

$$$$

q: Respond only with z-score recorded for `N[C@@H](Cc1ccccc1)C(=O)NCc1cn(Cc2ccccc2)nn1`
a: 0.64

q: State its z-score: `CCOC(=O)C[C@H]1[C@H](OC(=O)c2ccc(C(=O)c3ccccc3)cc2)[C@@H](NC(=O)c2ccc3ccccc3n2)c2cc(OCCCO)ccc2N1C(=O)Cc1ccc(OC)cc1`
a: -1.71

q: Give the reported value of z-score for this record: CC(C)c1ccc(NN2C(C(O)c3ccc(F)cc3)C=CC3C(=O)N(c4ccccc4)C(=O)C32)cc1 (centres undefined)
a: -1.15

q: For the compound `CCOC(=O)C[C@H]1[C@H](OC(=O)c2ccc(-c3ccccc3)cc2)[C@@H](NC(=O)CC(C)C)c2cc(OCCCO)ccc2N1C(=O)c1ccc2ccccc2n1` , give its reported z-score.
a: -1.89

* * *

- METHOD NOTES: JC-1 mitochondrial potential readout, lung cancer cells – cell-based, A549, JC-1 fluorescence, basal, 24 h, 100 nL, profiling panel (AID 1138);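 further: A549 lung adenocarcinoma cells under basal conditions with no added stimulus; test concentration not given here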
- ASSAY CONTEXT: higher = more signal
Below, each entry is listed alongside its reported z-score.
Reply briefly: the number, and no unit.

Worked set:
>  <COMPOUND>
CCOC(=O)C[C@H]1[C@H](OC(=O)c2ccccc2-c2ccccc2)[C@@H](NC(=O)c2ccc3ccccc3c2)c2cc(OCCCO)ccc2N1C(=O)c1ccccc1

>  <READOUT LABEL>
z-score

>  <VALUE REPORTED>
1.04

$$$$
>  <COMPOUND>
CC1CC/C=C\[C@H]2OC34C=CCN(c5ccc(Cl)cc5)C(=O)[C@H]3N(C(C)CO)C(=O)[C@]4(C)C2C(=O)O1 (stereo not given in full)

>  <READOUT LABEL>
z-score

>  <VALUE REPORTED>
0.798

$$$$
>  <COMPOUND>
COc1cc2c(cc1O)C(C1CC1)N(Cc1cccc(OC(F)(F)F)c1)CC2 (stereo not given)

>  <READOUT LABEL>
z-score

>  <VALUE REPORTED>
-1.46

$$$$
>  <COMPOUND>
CCCC[C@@H](O)C1=C(COC)C[C@H]2C(=O)N(C)C(=O)[C@H]2[C@H]1CO

>  <READOUT LABEL>
z-score

>  <VALUE REPORTED>
-0.278

$$$$
>  <COMPOUND>
CCCC=C(CCC)[C@@H](NS(=O)(=O)CC12CCC(CC1=O)C2(C)C)c1ccc(C(=O)OC)cc1 (stereo not given in full)

>  <READOUT LABEL>
z-score

>  <VALUE REPORTED>
0.237

$$$$

q: Report measured z-score; entry is `Cc1ccc(S[C@]2(C(=O)NCCN3CCOCC3)CC(=O)N(Cc3ccccc3Cl)[C@@H]2c2ccc(CO)cc2I)cc1`
a: 1.08

q: Provide z-score value for the following compound: `CCCC[C@@H](O)C1=C(COc2ccccc2)C[C@H]2C(=O)N(Cc3ccccc3)C(=O)[C@H]2[C@H]1CO`
a: 0.85

q: State its z-score: `CC(C)N1C(=O)C[C@@](C(=O)O)(c2ccc([N+](=O)[O-])cc2)[C@H]1c1ccc(CO)cc1`
a: 0.993

q: Using known records, supply z-score for `CO[C@H]1O[C@H](CO)[C@@H](OC(=O)CCc2ccccc2)[C@@H]2OC(=O)[C@@H](Cc3ccccc3)C/C=C/C[C@H](Cc3ccccc3)C(=O)O[C@@H]12`
a: 2.11

q: Given `COCCCNC(=O)[C@@]1(Sc2ccc(C)cc2)CC(=O)N(C2Cc3ccccc3C2)[C@@H]1c1ccc(CO)cc1` , respond with its z-score.
a: -0.318

q: Fill in reported z-score for this entry: `CCOC(=O)C[C@H]1[C@H](OC(=O)c2ccc(C(=O)c3ccccc3)cc2)[C@@H](NC(=O)C2CCCCC2)c2cc(OCCCO)ccc2N1C(=O)c1ccc2ccccc2n1`
a: 0.956

q: Let me know recorded z-score for `Cc1ccc(S[C@]2(C(=O)NCC(F)(F)F)CC(=O)N(Cc3cc(C(F)(F)F)cc(C(F)(F)F)c3)[C@@H]2c2ccc(CO)cc2I)cc1` , thanks.
a: -1.01

q: Give z-score for the following compound: `CC(C)N1C(=O)C[C@@](C(=O)NC2CC2)(c2ccc([N+](=O)[O-])cc2)[C@H]1c1ccc(CO)cc1`
a: -0.544

q: Please indicate z-score recorded for CCCCCC1=C2CNC(C)(C(=O)OC)C=C2C(C)C1=O (stereo not given)
a: 1.01

q: Provide z-score value for the following compound: `Cc1ccc(S[C@]2(C(=O)NCc3ccccc3)CC(=O)N(C3CCCCC3)[C@@H]2c2ccc(CO)cc2I)cc1`
a: 1.3

q: Query z-score for `COC(=O)[C@@]1(Cc2ccccc2)[C@H]2c3cc(C(=O)N4CCCC4)n(CCc4ccccn4)c3C[C@H]2CN1C(=O)c1ccccc1`
a: -0.0942

q: Look up and state reported z-score for O=C1C2C=CC(C(O)C3CC=CCC3)N(Nc3ccccc3)C2C(=O)N1c1ccccc1 (stereo not given)
a: -1.15
